Hey, just so you know, these numbers are from patent US7517998B2.

target: K103NNY181C mutant reverse transcriptase (Human immunodeficiency virus type 1 group M subtype B, UniProt P04585, K690N/Y768C); construct: mutations that occur in the reverse transcriptase segment of the pol gene; experiment: Reverse transcriptase enzymatic assay (PicoGreen), K103N/Y181C mutant RT; assay type: biochemical, HIV-1; settings: IC50 mut (nM), mutant (K103N/Y181C) reverse transcriptase, enzymatic assay of Example 24
measure.name: IC50

>>> print(df.to_string())
                                   molecule  measure_name  measured_value
0  CC(C)(C)c1ccc(-n2nnnc2SCC(=O)Nc2ccc(NC(=O)Cc3cccc([N+](=O)[O-])c3)cc2Cl)c(Cl)c1          IC50          170 nM
1  CC(C)(C)c1ccc(-n2nnnc2SCC(=O)Nc2ccc(NS(=O)(=O)Cc3ccccc3)cc2Cl)c(Cl)c1          IC50          272 nM
2  CN(C)c1ccc(CC(=O)Nc2ccc(NC(=O)CSc3nnnn3-c3ccc(C(C)(C)C)cc3Cl)c(Cl)c2)cc1          IC50          236 nM
3  CC(C)(C)c1ccc(-n2nnnc2SCC(=O)Nc2ccc(NC(=O)Cc3cccc[n+]3[O-])cc2Cl)c(Cl)c1          IC50         43.5 nM
4  CC(C)(C)c1ccc(-n2nnnc2SCC(=O)Nc2ccc(NC(=O)Cc3ccccc3)cc2Cl)c(Cl)c1          IC50          116 nM
5  CC(=O)NC(C(=O)Nc1ccc(NC(=O)CSc2nnnn2-c2ccc(C(C)(C)C)cc2Cl)c(Cl)c1)c1ccccc1 (stereo not shown)          IC50         21.5 nM
6  CCOC(=O)c1ccc(NC(=O)Nc2ccc(NC(=O)CSc3nnnn3-c3ccc(C(C)(C)C)cc3Cl)c(Cl)c2)cc1          IC50           74 nM
